// reported EC50 for each item listed
# System: Jurkat (clone E6-1) cells with NFAT luciferase reporter
# Assay remarks: Jurkat reporter assay (NFAT Luciferase)
# Format: cell-based
# Experimental context: Homo sapiens; Jurkat NFAT luciferase reporter cells, anti-CD3 stimulation, 6 hr; read-out: Jurkat NFAT EC50

Consider the following illustrative entries.
C[C@@H](N[C@@H]1CCC[C@@H]1O)c1cc(C(F)(F)F)c2oc(-c3cccc(-c4ccc(F)cc4-c4nncn4C)c3)nc2c1 [EA-2] | < 200 nM
Cn1cnnc1-c1cc(Cl)ccc1-c1cc(-c2nc3cc(CNCC4(O)CCC4)cc(F)c3o2)nc(C2CC2)c1 [AHI-5] | < 200 nM
Cn1cnnc1-c1cc(F)ccc1-c1cccc(-c2nc3cc(CNCC4(O)CCCC4)cc(C(F)(F)F)c3[nH]2)c1 [CJ-1] | < 200 nM

Then this molecule:
Q: What value of EC50 has been reported for the following molecule? CNCc1cc2nc(-c3cc(-c4ccc(F)cc4-c4nncn4C)cc(C4CC4)n3)oc2c(F)c1F [AHA-2]
Ans: 1000 to 10000 nM
